Assign inhibition at 30 µM to each entry below.
Target: hAC8 (Homo sapiens, UniProt P40145)
Construct: expressed in transfected cells
Sequence (P40145 whole entry): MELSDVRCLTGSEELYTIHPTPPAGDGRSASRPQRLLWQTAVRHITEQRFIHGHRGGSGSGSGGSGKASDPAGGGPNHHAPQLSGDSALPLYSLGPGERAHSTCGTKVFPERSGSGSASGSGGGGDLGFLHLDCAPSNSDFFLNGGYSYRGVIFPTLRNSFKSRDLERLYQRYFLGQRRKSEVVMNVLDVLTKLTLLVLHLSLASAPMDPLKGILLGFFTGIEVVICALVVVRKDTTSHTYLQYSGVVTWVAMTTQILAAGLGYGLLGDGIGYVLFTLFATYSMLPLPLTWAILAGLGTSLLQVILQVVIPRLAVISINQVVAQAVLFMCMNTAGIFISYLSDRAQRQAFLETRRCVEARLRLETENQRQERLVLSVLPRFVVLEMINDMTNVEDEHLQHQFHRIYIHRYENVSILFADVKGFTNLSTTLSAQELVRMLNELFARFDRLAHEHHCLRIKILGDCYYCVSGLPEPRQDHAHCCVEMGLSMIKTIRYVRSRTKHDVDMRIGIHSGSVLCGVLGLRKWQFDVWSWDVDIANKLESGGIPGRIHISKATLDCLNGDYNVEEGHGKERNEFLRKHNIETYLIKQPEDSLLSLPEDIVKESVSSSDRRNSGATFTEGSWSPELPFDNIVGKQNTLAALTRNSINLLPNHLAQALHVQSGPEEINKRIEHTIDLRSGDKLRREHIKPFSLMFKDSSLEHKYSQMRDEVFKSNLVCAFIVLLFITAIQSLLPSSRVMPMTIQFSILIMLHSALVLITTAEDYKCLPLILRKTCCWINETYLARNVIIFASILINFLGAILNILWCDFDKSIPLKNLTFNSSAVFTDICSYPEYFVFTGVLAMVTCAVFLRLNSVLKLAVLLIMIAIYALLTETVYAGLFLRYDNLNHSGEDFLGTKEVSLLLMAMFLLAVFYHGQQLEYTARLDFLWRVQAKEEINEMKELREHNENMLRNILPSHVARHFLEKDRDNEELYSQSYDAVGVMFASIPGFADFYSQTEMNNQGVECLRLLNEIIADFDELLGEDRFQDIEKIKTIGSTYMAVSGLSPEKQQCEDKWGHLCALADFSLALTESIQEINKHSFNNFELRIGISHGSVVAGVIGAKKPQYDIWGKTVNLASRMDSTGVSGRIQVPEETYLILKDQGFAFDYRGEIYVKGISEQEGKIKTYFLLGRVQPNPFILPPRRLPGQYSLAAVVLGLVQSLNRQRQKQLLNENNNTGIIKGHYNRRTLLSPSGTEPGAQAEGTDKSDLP
Experiment: Cyclic AMP accumulation in HEK cells stably expressing AC8, stimulated with A23187 (HTRF)
Assay type: cell-based
Conditions: HEK293; HEK-AC8 cells, 30 μM
Please reply with the bare figure in % and do not write the unit itself.

[ask] Recorded inhibition at 30 µM of `O=C(Nc1nnc(C2CCCCC2)o1)c1cccc(C(F)(F)F)c1` , please.
[reply] 62

[ask] Recorded inhibition at 30 µM of `Cc1ccc(C(=O)Nc2nnc(-c3ccc4c(c3)CCCC4)o2)cc1` , please.
[reply] 60

[ask] Recorded inhibition at 30 µM of `O=C(Nc1nnc(-c2cccs2)o1)c1ccc(Br)cc1` , please.
[reply] 41

[ask] Recorded inhibition at 30 µM of `COc1cccc(C(=O)Nc2nnc(-c3ccc4c(c3)OCCO4)o2)c1` , please.
[reply] 18

[ask] Recorded inhibition at 30 µM of `COc1ccc(C(=O)Nc2nnc(-c3cccs3)o2)cc1` , please.
[reply] 10

[ask] Recorded inhibition at 30 µM of `O=C(Nc1nnc(-c2ccc3c(c2)CCCC3)o1)c1cccc(F)c1` , please.
[reply] 90

[ask] Recorded inhibition at 30 µM of `O=C(Nc1nnc(C2CCCCC2)o1)c1ccc(Br)cc1` , please.
[reply] 71

[ask] Recorded inhibition at 30 µM of `Cc1ccc(C(=O)Nc2nnc(C3CCCCC3)o2)cc1` , please.
[reply] 1

[ask] Recorded inhibition at 30 µM of `COc1cc(C(=O)Nc2nnc(C3CCCCC3)o2)cc(C(F)(F)F)c1` , please.
[reply] 79

[ask] Recorded inhibition at 30 µM of `CCc1ccc(C(=O)Nc2nnc(-c3ccc(F)cc3)o2)cc1` , please.
[reply] 32

[ask] Recorded inhibition at 30 µM of `CSc1cccc(C(=O)Nc2nnc(-c3ccc4c(c3)CCCC4)o2)c1` , please.
[reply] 68

[ask] Recorded inhibition at 30 µM of `O=C(Nc1nnc(-c2ccc(F)cc2)o1)c1ccc(Br)cc1` , please.
[reply] 33

[ask] Recorded inhibition at 30 µM of `COc1cc(C(=O)Nc2nnc(-c3ccc4c(c3)CCCC4)o2)cc(C(F)(F)F)c1` , please.
[reply] 79

[ask] Recorded inhibition at 30 µM of `O=C(Nc1nnc(-c2ccc3c(c2)CCCC3)o1)c1cccc(C(F)(F)F)c1` , please.
[reply] 82

[ask] Recorded inhibition at 30 µM of `O=C(Nc1nnc(C2CCCCC2)o1)c1cccc(F)c1` , please.
[reply] 11

[ask] Recorded inhibition at 30 µM of `Cc1ccc(C(=O)Nc2nnc(-c3ccc4c(c3)OCCO4)o2)cc1` , please.
[reply] 25

[ask] Recorded inhibition at 30 µM of `Cc1cc(C(=O)Nc2nnc(-c3ccc4c(c3)CCCC4)o2)cc(C(F)(F)F)c1` , please.
[reply] 78

[ask] Recorded inhibition at 30 µM of `CSc1ccc(C(=O)Nc2nnc(-c3ccc4c(c3)OCCO4)o2)cc1` , please.
[reply] 37

[ask] Recorded inhibition at 30 µM of `CSc1cccc(C(=O)Nc2nnc(-c3cccs3)o2)c1` , please.
[reply] 34

[ask] Recorded inhibition at 30 µM of `CC(C)Oc1ccc(C(=O)Nc2nnc(C3CCCCC3)o2)cc1` , please.
[reply] 35

Recorded values, source patent US20200031785A1.
